These measurements were taken from the supplement of paper PMC10307832.

relative viability overview
# Tested on: HCC-78
# procedureText: relative viability (nuclei count vs DMSO), 5 days (fraction); higher = more cells survive
# details: first compound 0.08 µM
measurementType: relative viability

compound	assaySystem	measurementType	measValue
COc1nc(C)cnc1NS(=O)(=O)c1cccnc1-c1ccc(-c2nnco2)cc1 [Zibotentan] + CC(=O)c1c(C)c2cnc(Nc3ccc(N4CCNCC4)cn3)nc2n(C2CCCC2)c1=O [Palbociclib] (partner 0.5 µM)	HCC-78	relative viability	0.464
COc1nc(C)cnc1NS(=O)(=O)c1cccnc1-c1ccc(-c2nnco2)cc1 [Zibotentan] + C[C@]1(O)C[C@@H](c2nc(-c3ccc4ccc(-c5ccccc5)nc4c3)c3c(N)nccn32)C1 [Linsitinib] (partner 1 µM)	HCC-78	relative viability	0.548

---

# System: LU99A
# procedureText: relative viability (nuclei count vs DMSO), 5 days (fraction); higher = more cells survive
# details: first compound 2 µM
Below, each of the compounds is paired with its reported relative viability value.

compound	relative viability
COCC1(CO)C(=O)C2CCN1CC2 (stereo not drawn) [PRIMA-1MET] + CS(=O)(=O)N1CCN(Cc2cc3nc(-c4cccc5[nH]ncc45)nc(N4CCOCC4)c3s2)CC1 [Pictilisib] (partner 1 µM)	0.386
COCC1(CO)C(=O)C2CCN1CC2 (stereo not drawn) [PRIMA-1MET] + O=C(CCCCCCC(=O)Nc1ccccc1)NO [Vorinostat] (partner 1 µM)	0.54
COCC1(CO)C(=O)C2CCN1CC2 (stereo not drawn) [PRIMA-1MET] + N=C(N)NC(=N)NCCc1ccccc1 [Phenformin] (partner 250 µM)	0.734

---

Reported relative viability by item:
# Test system: NCI-H522
# procedureText: relative viability (nuclei count vs DMSO), 5 days (fraction); higher = more cells survive
# details: first compound 0.01 µM

compound	relative viability
O=c1cc(N2CCOCC2)oc2c(-c3cccc4c3sc3ccccc34)cccc12 + CCNC(=O)c1noc(-c2cc(C(C)C)c(O)cc2O)c1-c1ccc(CN2CCOCC2)cc1 [Luminespib] (partner 0.01 µM)	1.23
CCN(CC)CCCCNc1ncc2cc(-c3cc(OC)cc(OC)c3)c(NC(=O)NC(C)(C)C)nc2n1 + O=C(CCCCCCC(=O)Nc1ccccc1)NO [Vorinostat] (partner 1 µM)	0.891
O=c1cc(N2CCOCC2)oc2c(-c3cccc4c3sc3ccccc34)cccc12 + Cc1cc(Nc2cc(N3CCN(C)CC3)nc(Sc3ccc(NC(=O)C4CC4)cc3)n2)n[nH]1 [Tozasertib] (partner 0.1 µM)	0.548

---

# System: ChaGo-K-1
# procedureText: relative viability (nuclei count vs DMSO), 5 days (fraction); higher = more cells survive
# details: first compound 0.03162 µM

molecule	relative viability
O=c1cc(N2CCOCC2)oc2c(-c3cccc4c3sc3ccccc34)cccc12 + NC(=O)Nc1cc(-c2cccc(F)c2)sc1C(=O)N[C@H]1CCCNC1 [AZD7762] (partner 0.2 µM)	0.898
O=c1cc(N2CCOCC2)oc2c(-c3cccc4c3sc3ccccc34)cccc12 + CC(=O)c1c(C)c2cnc(Nc3ccc(N4CCNCC4)cn3)nc2n(C2CCCC2)c1=O [Palbociclib] (partner 0.5 µM)	0.91
O=c1cc(N2CCOCC2)oc2c(-c3cccc4c3sc3ccccc34)cccc12 + Nc1nc2[nH]cc(CCc3ccc(C(=O)N[C@@H](CCC(=O)O)C(=O)O)cc3)c2c(=O)[nH]1 [Pemetrexed] (partner 0.2 µM)	0.249
O=c1cc(N2CCOCC2)oc2c(-c3cccc4c3sc3ccccc34)cccc12 + CC(=O)Nc1cccc(-n2c(=O)n(C3CC3)c(=O)c3c(Nc4ccc(I)cc4F)n(C)c(=O)c(C)c32)c1 [Trametinib] (partner 0.02 µM)	0.958
CCN(CC)CCCCNc1ncc2cc(-c3cc(OC)cc(OC)c3)c(NC(=O)NC(C)(C)C)nc2n1 + CC1(C)CCC(c2ccc(Cl)cc2)=C(CN2CCN(c3ccc(C(=O)NS(=O)(=O)c4ccc(N[C@H](CCN5CCOCC5)CSc5ccccc5)c(S(=O)(=O)C(F)(F)F)c4)cc3)CC2)C1 [Navitoclax] (partner 0.5 µM)	0.893
